Origin of the recorded values: PubChem BioAssay (NCI)

Listed here: items and their measured TGI.
- Tested on: SK-MEL-5 melanoma
- method.notes: NCI tumour cell line growth inhibition, 48 h
Where a SMILES comes first, the peptide text is derived from it.
result.type: TGI

NC(N)=Nc1nc2ccc([N+](=O)[O-])cc2[nH]1	> 100 µM
CCCCCCOc1ccc(C(=O)N(C)O)cc1	62.5 µM
COc1ccc(/C=C2/NC(=S)N=C2Cl)cc1	> 100 µM
Cc1nc2ccc(NC3OC(CO)C(O)C(O)C3O)cc2c(=O)n1-c1ccccc1 (configuration not stated)	> 100 µM
C/C(=N\NC(=S)N1CCCCCCCCCCCC1)c1ccccn1	0.636 µM
Cc1cc(C(=O)NC(CCC(=O)O)C(=O)O)sc1CCC1CNc2nc(N)[nH]c(=O)c2C1 (configuration not stated)	> 100 µM
Nc1c(-c2ccccc2[N+](=O)[O-])nc2ccccn12	> 100 µM
COC(=O)[C@]1(c2cc3ccccc3[nH]2)CC2CN(CC(=O)N(C)OC)C1CC2(OC)OC (some centres not stated)	> 100 µM
Cc1ccn2c(CCc3nnc4cc(C)ccn34)nnc2c1	> 100 µM
CCc1cc2ncc(CN3CCN(c4ccc(C(=O)NC)nc4)CC3)cc2[nH]c1=O	> 100 µM
CN(C)S(=O)(=O)n1cnc(CO)c1	> 100 µM
CC(C)C(C/C=C1/CC(CO)(COC(=O)c2ccccc2)OC1=O)C(C)C (configuration not stated)	21.3 µM
CCC(C)C1NC(=O)C2CCCN2C(=O)CNC(=O)C(C)NC(=O)C(Cc2ccccc2)NC(=O)C(C(C)C)NC1=O (configuration not stated) (cyclo(GPIVFA); configuration not given here)	> 100 µM
CC1(C)C(=O)/C=C\C(=O)C(C)(C)C(=O)/C=C\C(=O)C(C)(C)C(=O)/C=C\C(=O)C(C)(C)C(=O)/C=C\C1=O	56.2 µM
Nc1nc(N)c2c(n1)NC(c1ccccc1)C1CCc3ccccc3C1=N2 (configuration not stated)	2.25 µM
CNS(=O)(=O)NN(C)S(=O)(=O)c1ccc2ccccc2c1	> 100 µM
O=C(CC(=O)N1N=C(N(c2ccccc2)c2ccccc2)CC1c1ccccc1)Nc1ccc(Cl)cc1 (configuration not stated)	> 100 µM
COc1ccc(/C(Cl)=C(\c2ccc(OCCN(C)C)cc2)c2ccc(OC(=O)C(C)(C)C)cc2)cc1	27 µM
COc1ccc(/C=C2\Sc3nnc(CNc4ccc(Cl)cc4)n3N=C2c2cc(F)c(Cl)cc2Cl)cc1OC	> 100 µM
O=C1NC(=O)/C(=C/c2ccc(S(=O)(=O)N/N=C\C(O)C(O)C(O)C(O)CO)cc2)N1 (configuration not stated)	> 100 µM
CO[C@@H]1C[C@H]2N3CC[C@@]2(c2cc4c(cc2C3)OCO4)[C@H]2O[C@@H]12	0.303 µM
c1cncc(O[Si](Oc2cccnc2)(Oc2cccnc2)Oc2cccnc2)c1	> 100 µM
[O-][N+]1=NC(c2ccccc2)=C1c1ccccc1	> 50 µM
CC(CNCCCNCCNCCCNCO)[N+](=O)[O-] (configuration not stated)	29.9 µM
Cc1sc(C)c2c1C(=O)CC2N (configuration not stated)	> 100 µM
COc1cc(N2CCN(C(C)C)CC2)ccc1Nc1nc(Nc2cccc(F)c2C(=O)O)c2cc[nH]c2n1	> 25 µM
C(=N\OCCc1ccccc1)/c1cccnc1	> 100 µM
O=c1c(Br)cc2c(-c3ccccc3)c3cc(Br)c(O)c(Br)c3oc-2c1Br	> 100 µM
CN1CCN(c2nc(NCCCNc3ccnc4cc(Cl)ccc34)c3ccccc3n2)CC1	3.18 µM
N=C(N)c1ccc(NCCOCCNc2ccc(C(=N)N)cc2)cc1	89.4 µM
COc1cc2ncnc(Nc3ccc4c(cnn4Cc4ccccc4)c3)c2cc1OC	> 25 µM
Cc1cc(N2CCCC2)nc(NCc2cc(Nc3ccnc4cc(Cl)ccc34)ccc2F)n1	2.2 µM
O=C(O)CCc1c2ccc(=O)c(O)c-2oc2c(O)c(O)ccc12	> 100 µM
CCOC(=O)/C=C/[C@H](O)[C@@H](O)/C=C/C(=O)OCC	> 100 µM
C[C@]1(Cn2ccnn2)C(C(=O)O)N2C(=O)CC2S1(=O)=O (some centres not stated)	> 100 µM
COc1ccc(/C=c2/sc3n(c2=O)NC2(CCC(C)CC2)NN=3)cc1 (configuration not stated)	> 100 µM
CC1(S)CC2C(CC1Sc1ccccc1)C2(C)C (configuration not stated)	> 100 µM
C/C(=N\NC(=S)N1CC2CCC(CC2)C1)c1cccc(C)n1	13.7 µM
COc1ccc(/C=C2\CN(Cc3cn(CCNc4ccnc5cc(Cl)ccc45)nn3)C/C(=C\c3ccc(OC)c(OC)c3)C2=O)cc1OC	3.75 µM
CCOC(=O)c1nc2ccccc2nc1Oc1cc(OC)c(OC)c(OC)c1	> 100 µM
CC(C)(C)OC/C=C1\C(=O)O[C@H]2C[C@@H](O[Si](C)(C)C(C)(C)C)C[C@@H]12	> 100 µM
CC(C)(C)OC(=O)c1ccc(NCC2=CC(=O)C=CC2=O)cc1	29 µM
